This collection of values is drawn from patent US8609635B2.

Each item that follows carries a reported pEC50.
Tested on: HCV chimeric replicon with NS5A of genotype 3a (NC00982)
Assay: Cell-based HCV replicon assay (TaqMan), chimeric replicon genotype 3a (NC00982)
Conditions: Hepatitis C virus, 72 h, read-out: HCV replicon EC50 3a (NC00982), chimeric replicon 3a (NC00982); replicon RNA by TaqMan, day 3
pEC50: −log10 of the molar value.

molecule	prefix.operator	pEC50
COC(=O)N[C@H](C(=O)N1C[Si](C)(C)C[C@H]1c1ncc(-c2ccc(-c3ccc4c(ccc5nc([C@@H]6CC(F)(F)CN6C(=O)[C@@H](NC(=O)OC)C(C)C)[nH]c54)c3)cc2F)[nH]1)C(C)C [Compound 71]	=	9.05
COC(=O)N[C@H](C(=O)N1CC(C)(C)C[C@H]1c1ncc(-c2ccc(-c3ccc4c(ccc5nc([C@@H]6C[Si](C)(C)CN6C(=O)[C@@H](NC(=O)OC)C(C)C)[nH]c54)c3)cc2)[nH]1)C(C)C [Compound 78]	=	9.59
CC(C)OC(=O)N[C@H](C(=O)N1C[Si](C)(C)C[C@@H]1c1ncc(-c2ccc(-c3ccc4c(ccc5nc([C@H]6C[C@H](F)CN6C(=O)[C@@H](NC(=O)OC(C)C)C(C)C)[nH]c54)c3)c(F)c2)[nH]1)C(C)C [Compound 84]	<	7.00
CC(C)OC(=O)N[C@H](C(=O)N1CCC(F)(F)C[C@H]1c1ncc(-c2ccc(-c3ccc4c(ccc5nc([C@@H]6C[Si](C)(C)CN6C(=O)[C@@H](NC(=O)OC(C)C)C(C)C)[nH]c54)c3)cc2)[nH]1)C(C)C [Compound 88]	<	7.00

###

Each item that follows carries a reported pEC50.
Tested on: HCV chimeric replicon with NS5A of genotype 3a (NC00982)
Experiment: Cell-based HCV replicon assay (TaqMan), chimeric replicon genotype 3a (NC00982)
Conditions: Hepatitis C virus, 72 h, read-out: HCV replicon EC50 3a (NC00982), chimeric replicon 3a (NC00982); replicon RNA by TaqMan, day 3
Method: Measurement of inhibition by compounds of the present invention was performed using the HCV replicon system. Several different replicons encoding different HCV genotypes or mutations were used. […] Compounds of the present invention were assayed for cell-based anti-HCV activity using the following protocol. […] The replicon RNA level was measured using real time PCR (TaqMan® assay). […]
pEC50: −log10 of the molar value.
readout.label: pEC50

compound	target.or.test.system	readout.label	number
COC(=O)N[C@H](C(=O)N1C[Si](C)(C)C[C@@H]1c1nc2ccc3cc(-c4ccc(-c5cnc([C@@H]6CC(C)(C)CN6C(=O)[C@@H](NC(=O)OC)C(C)C)[nH]5)cc4)ccc3c2[nH]1)C(C)C [Compound 79]	HCV chimeric replicon with NS5A of genotype 3a (NC00982)	pEC50	8.36
COC(=O)N[C@H](C(=O)N1C[Si](C)(C)C[C@H]1c1ncc(-c2ccc(-c3ccc4c(ccc5nc([C@@H]6CCCN6C(=O)[C@@H](NC(=O)OC)C(C)C)[nH]c54)c3)cc2-c2cccs2)[nH]1)C(C)C [Compound 50]	HCV chimeric replicon with NS5A of genotype 3a (NC00982)	pEC50	8.52

###

Test system: HCV chimeric replicon with NS5A of genotype 3a (NC00982)
Test: Cell-based HCV replicon assay (TaqMan), chimeric replicon genotype 3a (NC00982)
Details: Hepatitis C virus, 72 h, read-out: HCV replicon EC50 3a (NC00982), chimeric replicon 3a (NC00982); replicon RNA by TaqMan, day 3
pEC50: −log10 of the molar value.
Each item that follows carries a reported pEC50.

compound	target.or.test.system	pEC50
COC(=O)N[C@H](C(=O)N1C[Si](C)(C)C[C@H]1c1ncc(-c2ccc(-c3ccc4c(ccc5nc([C@@H]6CCCN6C(=O)[C@@H](NC(=O)OC)C(C)C)[nH]c54)c3)nc2)[nH]1)C(C)C [Compound 49]	HCV chimeric replicon with NS5A of genotype 3a (NC00982)	9.70
COC(=O)N[C@H](C(=O)N1CC[C@H](C)[C@H]1c1nc2ccc3cc(-c4ccc(-c5cnc([C@@H]6C[Si](C)(C)CN6C(=O)[C@@H](NC(=O)OC)C(C)C)[nH]5)cc4)ccc3c2[nH]1)C(C)C [Compound 95]	HCV chimeric replicon with NS5A of genotype 3a (NC00982)	10.18
COC(=O)N[C@H](C(=O)N1C[Si](C)(C)C[C@H]1c1nc2ccc3cc(-c4ccc(-c5cnc([C@@H]6[C@@H]7C[C@@H]([C@@H](F)[C@H]7F)N6C(=O)[C@@H](NC(=O)OC6(C)CC6)C(C)C)[nH]5)cc4)ccc3c2[nH]1)C(C)C [Compound 101]	HCV chimeric replicon with NS5A of genotype 3a (NC00982)	7.26
COC(=O)N[C@@H](C)C(=O)N1C[Si](C)(C)C[C@H]1c1ncc(-c2ccc(-c3ccc4c(ccc5nc([C@@H]6CC(F)(F)CN6C(=O)[C@@H](NC(=O)OC)C(C)C)[nH]c54)c3)cc2)[nH]1 [Compound 106]	HCV chimeric replicon with NS5A of genotype 3a (NC00982)	9.36

###

Each item that follows carries a reported pEC50.
System: HCV chimeric replicon with NS5A of genotype 3a (NC00982)
Assay: Cell-based HCV replicon assay (TaqMan), chimeric replicon genotype 3a (NC00982)
Conditions: Hepatitis C virus, 72 h, read-out: HCV replicon EC50 3a (NC00982), chimeric replicon 3a (NC00982); replicon RNA by TaqMan, day 3
pEC50: −log10 of the molar value.

compound	prefix.operator	pEC50
COC(=O)N[C@H](C(=O)N1CC(O)C[C@H]1c1ncc(-c2ccc(-c3ccc4c(ccc5nc([C@@H]6C[Si](C)(C)CN6C(=O)[C@@H](NC(=O)OC)C(C)C)[nH]c54)c3)cc2)[nH]1)C(C)C (stereo partly shown)	=	8.77
COC(=O)N[C@H](C(=O)N1C[Si](C)(C)C[C@H]1c1nc2ccc3cc(-c4ccc(-c5cnc([C@@H]6C[C@H]7C[C@H]7N6C(=O)[C@@H](NC(=O)OC)C(C)C)[nH]5)cc4)ccc3c2[nH]1)C(C)C	=	10.05
CC(C)[C@H](NC(=O)OC1(C)CC1)C(=O)N1CC(C)(C)C[C@H]1c1ncc(-c2ccc(-c3ccc4c(ccc5nc([C@@H]6C[Si](C)(C)CN6C(=O)[C@@H](NC(=O)OC6(C)CC6)C(C)C)[nH]c54)c3)cc2)[nH]1	<	7.00
COC(=O)N[C@H](C(=O)N1C[Si](C)(C)C[C@H]1c1ncc(-c2ccc(-c3ccc4c(ccc5nc([C@@H]6C[C@@H](F)CN6C(=O)[C@@H](NC(=O)OC)C(C)C)[nH]c54)c3)c(F)c2)[nH]1)C(C)C	=	9.10

###

Assay: Pharmacokinetic analysis in dogs
Assay type: in vivo, male beagle dogs
Conditions: male, beagle, plasma, 1 mg/kg; Dog; dihydrochloride salt; 2 mpk/PO, 1 mpk/IV; read-out: Systemic Clearance

substance.smiles	clearance
COC(=O)N[C@H](C(=O)N1CC(F)(F)C[C@H]1c1ncc(-c2ccc(-c3ccc4c(ccc5nc([C@@H]6C[Si](C)(C)CN6C(=O)[C@@H](NC(=O)OC)C(C)C)[nH]c54)c3)cc2)[nH]1)C(C)C	0.8 mL/min/kg

###

Each item that follows carries a reported EC50.
Tested on: HCV chimeric replicon with NS5A of genotype 3a (NC00982)
Assay: Cell-based HCV replicon assay (TaqMan), chimeric replicon genotype 3a (NC00982)
Conditions: Hepatitis C virus, 72 h, read-out: HCV replicon EC50 3a (NC00982), chimeric replicon 3a (NC00982); replicon RNA by TaqMan, day 3
readout.label: EC50 (nM)

molecule	readout.unit	prefix.operator	number
COC(=O)N[C@H](C(=O)N1CC(F)C[C@H]1c1ncc(-c2ccc(-c3ccc4c(ccc5nc([C@@H]6C[Si](C)(C)CN6C(=O)[C@@H](NC(=O)OC)C(C)C)[nH]c54)c3)cc2)[nH]1)C(C)C (some centres unmarked)	nM	=	0.8
COC(=O)N[C@H](C(=O)N1CCC(F)(F)C[C@H]1c1ncc(-c2ccc(-c3ccc4c(ccc5nc([C@@H]6C[Si](C)(C)CN6C(=O)[C@@H](NC(=O)OC)C(C)C)[nH]c54)c3)cc2)[nH]1)C(C)C	nM	=	0.69
COC(=O)N[C@H](C(=O)N1C[Si](C)(C)C[C@H]1c1ncc(-c2ccc(-c3ccc4c(ccc5nc([C@@H]6CCCN6C(=O)[C@@H](NC(=O)OC)C(C)C)[nH]c54)c3)cc2F)[nH]1)C(C)C	nM	=	0.25
COC(=O)N[C@H](C(=O)N1C[Si](C)(C)C[C@H]1c1ncc(-c2ccc(-c3ccc4c(ccc5nc([C@@H]6CCCN6C(=O)[C@@H](NC(=O)OC)C(C)C)[nH]c54)c3)cc2OC)[nH]1)C(C)C	nM	=	2.4
COC(=O)N[C@H](C(=O)N1C[Si](C)(C)C[C@H]1c1nc2ccc3cc(-c4ccc(-c5cnc([C@@H]6CCCN6C(=O)[C@@H](NC(=O)OC)C67CC(C(F)(F)F)(C6)C7)[nH]5)cc4)ccc3c2[nH]1)C(C)C	nM	=	9.69
COC(=O)N[C@H](C(=O)N1CCS(=O)(=O)CC1c1ncc(-c2ccc(-c3ccc4c(ccc5nc([C@@H]6C[Si](C)(C)CN6C(=O)[C@@H](NC(=O)OC)C(C)C)[nH]c54)c3)cc2)[nH]1)C(C)C (some centres unmarked)	nM	=	5
COC(=O)N[C@H](C(=O)N1C[Si](C)(C)C[C@H]1c1ncc(-c2ccc(-c3ccc4c(ccc5nc([C@@H]6CCCN6C(=O)[C@@H](NC(=O)OC)C(C)C)[nH]c54)c3)cc2C2CC2)[nH]1)C(C)C	nM	=	5.5
COCCOC(=O)N[C@H](C(=O)N1CCC(F)(F)C[C@H]1c1ncc(-c2ccc(-c3ccc4c(ccc5nc([C@@H]6C[Si](C)(C)CN6C(=O)[C@@H](NC(=O)OCCOC)C(C)C)[nH]c54)c3)cc2)[nH]1)C(C)C	nM	>	100
COC(=O)N[C@H](C(=O)N1CC(F)(F)C[C@H]1c1ncc(-c2ccc(-c3ccc4c(ccc5nc([C@@H]6C[Si](C)(C)CN6C(=O)[C@@H](NC(=O)OC)C(C)C)[nH]c54)c3)c(F)c2)[nH]1)C(C)C	nM	=	2.9
COC(=O)NC(C(=O)N1C[Si](C)(C)CC1c1ncc(-c2ccc(-c3ccc4c(ccc5nc([C@@H]6CCCN6C(=O)C(NC(=O)OC)C(C)C)[nH]c54)c3)cc2)[nH]1)C(C)C (some centres unmarked)	nM	=	0.05
COC(=O)N[C@H](C(=O)N1CC(F)(F)C[C@H]1c1nc2ccc3cc(-c4ccc(-c5cnc([C@@H]6C[Si](C)(C)CN6C(=O)[C@@H](NC(=O)OC)C6CC6)[nH]5)cc4)ccc3c2[nH]1)C(C)C	nM	=	0.17
COC(=O)N[C@H](C(=O)N1CC(F)(F)C[C@H]1c1ncc(-c2ccc(-c3ccc4c(ccc5nc([C@@H]6C[Si](C)(C)CN6C(=O)[C@@H](NC(=O)OC)C(C)C)[nH]c54)c3)cc2)[nH]1)C(C)C	nM	=	0.35
CC(C)[C@H](NC(=O)OC1(C)CC1)C(=O)N1CCC(F)(F)C[C@H]1c1ncc(-c2ccc(-c3ccc4c(ccc5nc([C@@H]6C[Si](C)(C)CN6C(=O)[C@@H](NC(=O)OC6(C)CC6)C(C)C)[nH]c54)c3)cc2)[nH]1	nM	>	100
COC(=O)N[C@H](C(=O)N1C[Si](C)(C)C[C@H]1c1ncc(-c2ccc(-c3ccc4c(ccc5nc([C@@H]6CCCN6C(=O)[C@@H](NC(=O)OC)C(C)C)[nH]c54)c3)cc2OCCOC(C)=O)[nH]1)C(C)C	nM	=	52
COC(=O)NC(C(=O)N1C[Si](C)(C)CC1c1ncc(-c2ccc(-c3ccc4c(ccc5nc([C@@H]6C7CCC(C7)N6C(=O)C(NC(=O)OC)C(C)C)[nH]c54)c3)cc2)[nH]1)C(C)C (some centres unmarked)	nM	=	0.23
COC(=O)N[C@H](C(=O)N1C[Si]2(CCCC2)C[C@H]1c1ncc(-c2ccc(-c3ccc4c(ccc5nc([C@@H]6CCCN6C(=O)[C@@H](NC(=O)OC)C(C)C)[nH]c54)c3)cc2)[nH]1)C(C)C	nM	=	0.2
COC(=O)N[C@H](C(=O)N1C[Si](C)(C)C[C@H]1c1ncc(-c2ccc(-c3ccc4c(ccc5nc([C@@H]6CCCN6C(=O)[C@@H](NC(=O)OC)C(C)C)[nH]c54)c3)cc2-c2ccncc2)[nH]1)C(C)C	nM	>	100
